Values were extracted from patent US10954214B2.

test system: TMD8 cells; assay: 4-day proliferation assay, TMD8; assay type: cell-based; settings: Homo sapiens, 96 h, 4 days incubation, CellTiterGLO, read-out: Anti-proliferation: TMD-8 IC50
Quick list: IC50 per entry.

Illustrative cases are given below, each with its answer.
Inquiry: Look up and report measured IC50 for this entry: N#Cc1cc(NC(=O)c2cnn(-c3cccc4ncccc34)c2C(F)(F)F)cnc1-n1cncn1
Reply text: ~11200 nM

Inquiry: Look up and report measured IC50 for this entry: COc1ncc(NC(=O)c2cnn(-c3cccc4ncccc34)c2C(F)(F)F)cc1C#N
Reply text: > 20000 nM

Inquiry: Look up and report measured IC50 for this entry: O=C(Nc1cnc(-n2nccn2)c(Cl)c1)c1cnn(-c2cccc3occc23)c1C(F)(F)F
Reply text: ~12000 nM

Inquiry: Look up and report measured IC50 for this entry: N#Cc1cc(NC(=O)c2cnn(-c3cccc4nnsc34)c2C(F)(F)F)cnc1-n1nccn1
Reply text: 355 nM

Inquiry: Look up and report measured IC50 for this entry: NC(=O)c1ncc(-n2ncc(C(=O)Nc3cnc(-n4nccn4)c(Cl)c3)c2C(F)(F)F)c2ccsc12
Reply text: 676 nM

Inquiry: Look up and report measured IC50 for this entry: N#Cc1cc(NC(=O)c2cnn(-c3ncnc4sccc34)c2C(F)(F)F)cnc1-n1nccn1
Reply text: 832 nM

Inquiry: Look up and report measured IC50 for this entry: N#Cc1nccc2c(-n3ncc(C(=O)Nc4cnc(-n5nccn5)c(Cl)c4)c3C(F)(F)F)cccc12
Reply text: 871 nM

Inquiry: Look up and report measured IC50 for this entry: O=C(Nc1cnc(N2CCCS2(=O)=O)c(Cl)c1)c1cnn(-c2cncc3ccccc23)c1C(F)(F)F
Reply text: 6170 nM

Inquiry: Look up and report measured IC50 for this entry: N#Cc1cc(NC(=O)c2cnn(-c3cccc4ocnc34)c2C(F)(F)F)cnc1-n1nccn1
Reply text: 3550 nM

We now examine a further molecule.
Inquiry: Look up and report measured IC50 for this entry: O=C(Nc1cc(Cl)c(-n2nccn2)cc1F)c1cnn(-c2cncc3c(F)cccc23)c1C(F)(F)F
Reply text: 955 nM

###

Quick list: pIC50 per entry.
tested on: TMD8 cells; assay: 4-day proliferation assay, TMD8; format: cell-based; details: Homo sapiens, 96 h, 4 days incubation, CellTiterGLO, read-out: Anti-proliferation: TMD-8 IC50
pIC50: −log10 of the molar value.

Inquiry: Look up and report measured pIC50 for this entry: COc1ncc(NC(=O)c2cnn(-c3cccc4ncccc34)c2C(F)(F)F)cc1Cl [Cpd 7]
Reply text: ~4.85

Inquiry: Look up and report measured pIC50 for this entry: N#Cc1cc(NC(=O)c2cnn(-c3nccc4ncccc34)c2C(F)(F)F)cnc1-n1nccn1 [Cpd 100]
Reply text: ~5.28

Inquiry: Look up and report measured pIC50 for this entry: O=C(Nc1cnc(-n2nccn2)c(Cl)c1)c1cnn(-c2cccc3ncc(F)cc23)c1C(F)(F)F [Cpd 25]
Reply text: ~4.85

###

test system: IL10 secretion by TMD8 ABC-DLBCL cells; test: Human IL10 Mesoscale assay (TMD-8); type: cell-based; settings: Homo sapiens, TMD8; TMD-8 cells, 24 h
experimental-endpoint: pIC50
Formally, pIC50 is defined as -log10 of the concentration c, with c in mol/L.

Illustrative cases are given below, each with its answer.
Inquiry: Please respond with reported pIC50 (system IL10 secretion by TMD8 ABC-DLBCL cells) for Cc1ncnn1-c1ccc(NC(=O)c2cnn(-c3cncc4ccccc34)c2C(F)(F)F)cc1Cl [Cpd 51] .
Reply text: 6.90

Inquiry: Please respond with reported pIC50 (system IL10 secretion by TMD8 ABC-DLBCL cells) for COC(=O)c1cn(-c2ncc(NC(=O)c3cnn(-c4cccc5ncccc45)c3C(F)(F)F)cc2Cl)nn1 [Cpd 249] .
Reply text: 6.83

We now examine a further compound.
Inquiry: Please respond with reported pIC50 (system IL10 secretion by TMD8 ABC-DLBCL cells) for O=C(Nc1cnc(-n2nccn2)c(Cl)c1)c1cnn(-c2cccc3c2ccc[n+]3[O-])c1C(F)(F)F [Cpd 408] .
Reply text: 6.79

###

test system: IL10 secretion by TMD8 ABC-DLBCL cells; assay: Human IL10 Mesoscale assay (TMD-8); format: cell-based; details: Homo sapiens, TMD8; TMD-8 cells, 24 h
experimental-endpoint: pIC50
Formally, pIC50 is defined as -log10 of the concentration c, with c in mol/L.

Illustrative cases are given below, each with its answer.
Inquiry: Look up and report measured pIC50 for this entry: O=C(O)c1cnn(-c2ccc(NC(=O)c3cnn(-c4cccc5ncccc45)c3C(F)(F)F)cc2Cl)n1
Reply text: 6.09

Inquiry: Look up and report measured pIC50 for this entry: Cn1ccc(-c2ncc(NC(=O)c3cnn(-c4cncc5ccccc45)c3C(F)(F)F)cc2Cl)n1
Reply text: 7.04

Inquiry: Look up and report measured pIC50 for this entry: O=C(Nc1cnc(-c2nnco2)c(Cl)c1)c1cnn(-c2cncc3ccccc23)c1C(F)(F)F
Reply text: 7.20

Inquiry: Look up and report measured pIC50 for this entry: O=C(Nc1cnc(-n2nccn2)c(Cl)c1)c1cnn(-c2nccc3ccccc23)c1C(F)(F)F
Reply text: 7.07

Inquiry: Look up and report measured pIC50 for this entry: COc1ncc(NC(=O)c2cnn(-c3cncc4ccccc34)c2C(F)(F)F)cc1C#N
Reply text: 6.89

Inquiry: Look up and report measured pIC50 for this entry: N#Cc1cc(NC(=O)c2cnn(-c3cccc4nccnc34)c2C(F)(F)F)cnc1-n1nccn1
Reply text: 6.09

Inquiry: Look up and report measured pIC50 for this entry: Cc1cc(NC(=O)c2cnn(-c3cccc4ncccc34)c2C(F)(F)F)cnc1-c1nnnn1C
Reply text: 6.87

We now examine a further compound.
Inquiry: Look up and report measured pIC50 for this entry: N#Cc1cc(NC(=O)c2cnn(-c3cc(N)nc4ccccc34)c2C(F)(F)F)cnc1-n1nccn1
Reply text: 5.84

###

Quick list: IC50 per entry.
test system: IL6 secretion by OCI-LY3 ABC-DLBCL cells; experiment: Human IL6 Mesoscale assay (OCI-LY3); format: cell-based; conditions: Homo sapiens, 24 h
Only the number, expressed in nM, is required.

Inquiry: Look up and report measured IC50 for this entry: O=C(Nc1cnc(-n2nccn2)c(Cl)c1)c1cnn(-c2cnc(C3COCCO3)c3ccccc23)c1C(F)(F)F (centres unmarked)
Reply text: 115

Inquiry: Look up and report measured IC50 for this entry: O=C(Nc1ccnc(C(F)(F)F)c1)c1cnn(-c2cccn3nccc23)c1C(F)(F)F
Reply text: 20

Inquiry: Look up and report measured IC50 for this entry: CCc1nc(-n2nccn2)c(Cl)cc1NC(=O)c1cnn(-c2cccc3nccn23)c1C(F)(F)F
Reply text: 107

Inquiry: Look up and report measured IC50 for this entry: O=C(Nc1cnc(-n2nncc2CO)c(Cl)c1)c1cnn(-c2cccc3c(=O)[nH]ccc23)c1C(F)(F)F
Reply text: 123

Inquiry: Look up and report measured IC50 for this entry: N#Cc1cc(NC(=O)c2cnn(-c3cncc4c(F)cccc34)c2C(F)(F)F)cnc1-n1nccn1
Reply text: 17

Next:
Inquiry: Look up and report measured IC50 for this entry: O=C1COC(c2ncc(-n3ncc(C(=O)Nc4cnc(-n5nccn5)c(Cl)c4)c3C(F)(F)F)c3ccccc23)C1 (centres unmarked)
Reply text: 13

Inquiry: Look up and report measured IC50 for this entry: NCc1cnn(-c2ncc(NC(=O)c3cnn(-c4cccc5ncccc45)c3C(F)(F)F)cc2Cl)n1
Reply text: 126

Inquiry: Look up and report measured IC50 for this entry: Cc1cc(-n2nccn2)c(C#N)cc1NC(=O)c1cnn(-c2cnc(N)c3ccccc23)c1C(F)(F)F
Reply text: 209

Inquiry: Look up and report measured IC50 for this entry: N#Cc1cc(NC(=O)c2cnn(-c3ccnc4ccsc34)c2C(F)(F)F)cnc1-n1nccn1
Reply text: 27

Inquiry: Look up and report measured IC50 for this entry: Cc1nc(-n2nccn2)c(C#N)cc1NC(=O)c1cnn(-c2cnc(N)c3ccccc23)c1C(F)(F)F
Reply text: 45

Inquiry: Look up and report measured IC50 for this entry: CCOc1ncc(-n2ncc(C(=O)Nc3cnc(-n4nccn4)c(Cl)c3)c2C(F)(F)F)c2ccccc12
Reply text: 191

###

test system: TMD8 cells; assay: 4-day proliferation assay, TMD8; format: cell-based; settings: Homo sapiens, 96 h, 4 days incubation, CellTiterGLO, read-out: Anti-proliferation: TMD-8 IC50
experimental-endpoint: IC50

Illustrative cases are given below, each with its answer.
Inquiry: Look up and report measured IC50 for this entry: N#Cc1cc(NC(=O)c2cnn(-c3nccc4ccoc34)c2C(F)(F)F)cnc1-n1nccn1
Reply text: ~3.24 µM

Inquiry: Look up and report measured IC50 for this entry: N#Cc1cc(NC(=O)c2cnn(-c3nccc4sccc34)c2C(F)(F)F)cnc1-n1nccn1
Reply text: ~3.89 µM

Inquiry: Look up and report measured IC50 for this entry: O=C(Nc1cncc(C(F)(F)F)c1)c1cnn(-c2cccc3ccccc23)c1C(F)(F)F
Reply text: ~15.8 µM

Inquiry: Look up and report measured IC50 for this entry: Cn1ccnc1-c1ncc(NC(=O)c2cnn(-c3cncc4ccccc34)c2C(F)(F)F)cc1Cl
Reply text: ~11 µM

Inquiry: Look up and report measured IC50 for this entry: N#Cc1cc(NC(=O)c2cnn(-c3cccc4ncccc34)c2C(F)(F)F)cnc1OC1CC1
Reply text: ~12 µM

We now examine a further compound.
Inquiry: Look up and report measured IC50 for this entry: CN1C(=O)COc2c(Cl)cc(NC(=O)c3cnn(-c4cncc5ccccc45)c3C(F)(F)F)cc21
Reply text: ~5.89 µM
